Origin of values: patent US20260217767A1

- Test Description: Simulated Intestinal Fluid (SIF) Stability Assay
- Assay type: in vitro ADME
- Test Settings: pig, simulated intestinal fluid (SIF) with 1% porcine pancreatin, pH 6.5, porcine pancreatin, 37° C.; dimers, Table 7
Where a SMILES comes first, the peptide text is derived from it.
Hi there, I'd appreciate the recorded half-life at 22 μM for every entry that follows.

Working through the 3 molecules below one at a time, give half-life at 22 μM for each.
1. CC(C)C[C@@H]1NC(=O)[C@H]([C@@H](C)O)NC(=O)[C@H](CC(=O)O)NC(=O)[C@H](CO)NC(=O)[C@H](CCCNC(=N)N)N(C)C(=O)c2ccccc2CSC(C)(C)[C@@H](C(=O)N[C@@H](Cc2ccc3ccccc3c2)C(=O)N[C@@H](CCC(=O)O)CC(=O)N[C@H](CCCCN)C(N)=O)NC1=O [compound 161]
2. CC(C)C[C@@H]1NC(=O)[C@H]([C@@H](C)O)NC(=O)[C@H](CC(=O)O)NC(=O)[C@H](CO)NC(=O)[C@H](CCCNC(=N)N)N(C)C(=O)c2ccccc2CSC(C)(C)[C@@H](C(=O)N[C@@H](Cc2ccc(O)cc2)C(=O)N[C@H](CCC(=O)O)C(=O)N[C@H](CCCCN)C(N)=O)NC1=O [compound 169] (HELM PEPTIDE1{[meR].S.D.T.L.[Pen].Y.[dE].[dK].[am]}|CHEM1{[O=C(c1ccccc1C[*:2])[*:1]]}$PEPTIDE1,CHEM1,1:R1-1:R1|PEPTIDE1,CHEM1,6:R3-1:R2$$$V2.0)
3. CC(C)C[C@@H]1NC(=O)[C@H]([C@@H](C)O)NC(=O)[C@H](CC(=O)O)NC(=O)[C@H](CO)NC(=O)[C@H](CCCNC(=N)N)N(C)C(=O)c2ccccc2CSC(C)(C)[C@@H](C(=O)N[C@@H](Cc2ccccc2)C(=O)N[C@@H](CCC(=O)O)CC(=O)N[C@H](CCCCN)C(N)=O)NC1=O [compound 164] (HELM PEPTIDE1{[meR].S.D.T.L.[Pen].F.[O=C(O)CC[C@@H](CC(=O)[*:2])N[*:1]].[dK].[am]}|CHEM1{[O=C(c1ccccc1C[*:2])[*:1]]}$PEPTIDE1,CHEM1,1:R1-1:R1|PEPTIDE1,CHEM1,6:R3-1:R2$$$V2.0)

["> 3 h", "> 3 h", "> 3 h"]

---

Answer each item with its documented half-life at 20 μM.
- Test Description: Simulated Gastric Fluid (SGF) Stability Assay
- Type: in vitro ADME
- Test Settings: pig, simulated gastric fluid (SGF) with porcine pepsin, pH 2, 37° C., dimers, Table 7
Where a SMILES comes first, the peptide text is derived from it.

Look over these answered cases.
CC(C)C[C@@H]1NC(=O)[C@H]([C@@H](C)O)NC(=O)[C@H](CC(=O)O)NC(=O)[C@H](CO)NC(=O)[C@H](CCCNC(=N)N)N(C)C(=O)c2ccccc2CSC(C)(C)[C@@H](C(=O)N[C@@H](Cc2ccc(O)cc2)C(=O)N[C@H](CCC(=O)O)C(=O)N[C@H](CCCCN)C(N)=O)NC1=O [compound 169] (HELM PEPTIDE1{[meR].S.D.T.L.[Pen].Y.[dE].[dK].[am]}|CHEM1{[O=C(c1ccccc1C[*:2])[*:1]]}$PEPTIDE1,CHEM1,1:R1-1:R1|PEPTIDE1,CHEM1,6:R3-1:R2$$$V2.0) | > 3 h
CC(C)C[C@@H]1NC(=O)[C@H]([C@@H](C)O)NC(=O)[C@H](CC(=O)O)NC(=O)[C@H](CO)NC(=O)[C@H](CCCNC(=N)N)N(C)C(=O)c2ccccc2CSC(C)(C)[C@@H](C(=O)N[C@@H](Cc2ccccc2)C(=O)N[C@@H](CCC(=O)O)CC(=O)N[C@H](CCCCN)C(N)=O)NC1=O [compound 164] (HELM PEPTIDE1{[meR].S.D.T.L.[Pen].F.[O=C(O)CC[C@@H](CC(=O)[*:2])N[*:1]].[dK].[am]}|CHEM1{[O=C(c1ccccc1C[*:2])[*:1]]}$PEPTIDE1,CHEM1,1:R1-1:R1|PEPTIDE1,CHEM1,6:R3-1:R2$$$V2.0) | > 1 h

half-life at 20 μM reported for this compound CC(C)C[C@@H]1NC(=O)[C@H]([C@@H](C)O)NC(=O)[C@H](CC(=O)O)NC(=O)[C@H](CO)NC(=O)[C@H](CCCNC(=N)N)N(C)C(=O)c2ccccc2CSC(C)(C)[C@@H](C(=O)N[C@@H](Cc2c[nH]c3ccccc23)C(=O)N[C@@H](CCC(=O)O)C(=O)N(C)[C@H](CCCCN)C(N)=O)NC1=O [compound 152] (HELM PEPTIDE1{[meR].S.D.T.L.[Pen].W.E.[CN([C@H](CCCCN)C(=O)[*:2])[*:1]].[am]}|CHEM1{[O=C(c1ccccc1C[*:2])[*:1]]}$PEPTIDE1,CHEM1,1:R1-1:R1|PEPTIDE1,CHEM1,6:R3-1:R2$$$V2.0) : > 1 h
